Tested on: SK-MEL-5 melanoma
Test protocol: NCI-60 one-dose screen, 48 h
Condition summary: 10 µM unless noted
About 83,000 compounds went through this panel and 20% of them were active in at least one assay; those are over-represented in the sample as a whole. Active and inactive are the calls of the source. Rule for the calls: active = growth percent below 10; inactive = the rest.
Pick one: active, inactive

# example entries with known answers
CS(=O)(=O)c1cccc(Nc2ncc3cc(-c4ccccc4Cl)ccc3n2)c1 = active
COc1cccc(C2C(C#N)=C(N)Oc3c2ccc2ccccc32)c1 (stereo not given) = active
CC1OC(C(=O)N2CCN(CCO)CC2)CC1COC1CCCCC1 (stereo not given) = inactive
O=C(/C=C\c1ccc(O)c(O)c1)c1ccccc1O = inactive
Nc1cc(-c2ccc(Cl)cc2)nn1-c1nc(-c2ccc(Br)cc2)cs1 = inactive
Cc1ccccc1NC(=O)c1sc2nc3c(cc2c1N)CCCC3 = inactive
CCOC(=O)CSc1nc2sc3c(c2c(=O)n1-c1ccccc1)CCCCC3 = inactive
CCCC[N+]1(C)CCN=C1Cc1ccccc1 (stereo not given) = inactive

Per the assay record, what outcome was assigned to CC1=C(C(=O)c2ccccc2)C(c2ccc3c(c2)OCO3)NC(=S)N1 (stereo not given) ? inactive

# repeat for `C=CCn1c(SCC(=O)Nc2ccc(C(=O)/C=C/c3cc(OC)c(OC)c(OC)c3)cc2)nnc1-c1cc(-c2ccc(S(N)(=O)=O)cc2)nc2ccccc12` inactive

# repeat for `COC(=O)[C@@H](Cc1c[nH]c2ccccc12)NC[C@@H](O)CN1C(=O)/C(=C\c2cc(OC)c(OC)c(OC)c2)c2ccccc21` inactive

# repeat for CCCCC#Cc1c(I)n(C2OC(CO[Si](C)(C)C(C)(C)C)C3OC(C)(C)OC32)c(=O)[nH]c1=O (stereo not given) inactive

# repeat for `COc1cccc2cc(N(C)c3ncnc4ccccc34)ccc12` active

###

Entries and their growth values follow.
System: COLO 205 colon
Test protocol: NCI-60 one-dose screen, 48 h (100 = growth as untreated, 0 = no growth, -100 = all killed)
Condition summary: 10 µM unless noted
The panel holds about 83,000 compounds, 20% with a hit somewhere; the sample as a whole holds those more often.
Kindly answer with a numeric value in %, unit omitted.

Recorded results for 3 compounds are shown here.
CCOC(=O)c1c2c(n3ccc(NC(=O)CCN4CCCC4)cc13)C(=O)c1ncccc1C2=O = 15.4
Cn1ncc(CC(=O)O)c1-n1nnc2cc(Cl)ccc2c1=O = 118
CC(=O)/C(Br)=C/c1ccc(Br)o1 = 73.8

For `Cc1c(N2CCCCC2)[nH]c2ccccc12` , what is its reported growth? 124

# repeat for `CC(=O)c1ccc(Nc2nccc(-c3ccc(Cl)cc3)n2)cc1` 105

# repeat for `O=C(Nc1ncc(Cc2ccccc2Cl)s1)c1ccc2c(c1)OCCO2` -3.85

# repeat for `C#Cc1ccc(NC(=O)Cc2ccc(/C=C/C(=O)c3nccn3C)cc2)cc1` 66

# repeat for COc1ccc(C2=NN3C(C2)c2cc(Br)ccc2OC3c2ccncc2)cc1 (stereo unspecified) 110

# repeat for `Cc1c(-c2cnc3ccc(Cl)cc3c2C(=O)O)nnn1-c1ccc(Cl)cc1` 93.8

# repeat for `O=C1CCc2c(sc3[nH]c(=S)n(-c4cc(C(F)(F)F)cc(C(F)(F)F)c4)c(=O)c23)C1` -80

# repeat for CCN1C(=O)N(CC)C2C1NN=c1s/c(=C\c3ccccc3)c(=O)n12 (stereo unspecified) -2.49

# repeat for `Cc1ccc(NC(=O)c2ccc(Nc3ncnc4c3cnn4-c3cccc(F)c3)cc2)cc1` 109

# repeat for `CCOC(=O)c1c(C)nc2c(c1N)C(=O)C(=O)N2CCc1ccc(OC)c(OC)c1` 99.3

# repeat for `COc1nc2ccccc2cc1/C=C1/C=C(c2ccccc2)NC1=O` 29.3

# repeat for `C[C@H]1c2ccccc2CN1CCCOc1cc2c(cc1OCC1CC1)C1(CCCC1)C(N)=N2` -66.4

# repeat for `Cc1cc(C)n(C(=O)CSc2nc3sc4c(c3c(=O)n2-c2ccccc2)CCCCC4)n1` 115

# repeat for `CCN1CCN(c2nc(NNC(=O)c3ccc(OC)cc3)nc(N3CCN(C(c4ccccc4)c4ccccc4)CC3)n2)CC1` -8.98

# repeat for `O=c1[nH]c(CN2CCN(c3ccccc3)CC2)nc2c(Br)cc(Br)cc12` 104

# repeat for `CCOC(=O)c1c(NC(=S)Nc2ccc([N+](=O)[O-])cc2)sc2c1CCCCC2` 105

# repeat for `O=c1c(Cc2ccc(F)cc2)cc(-c2ccccc2)nn1C/C(=N/O)c1ccccc1` 47.9

# repeat for `COc1cc(NC(=O)c2cncnc2Nc2ccc3c(ccn3Cc3cccc(F)c3)c2)cc(OC)c1` 61.3

###

Entries and their growth values follow.
Test system: MOLT-4 leukemia
Test protocol: NCI-60 one-dose screen, 48 h (100 = growth as untreated, 0 = no growth, -100 = all killed)
Condition summary: 10 µM unless noted
This is part of a sample that, as a whole, favours compounds with a hit. Of some 83,000 tested, about 20% had one in any assay.
Kindly answer with a numeric value in %, unit omitted.

Recorded results for 2 compounds are shown here.
CC(=O)OCC(=O)O[C@@H]1C[C@]2(C(C)C)O[C@@]1(C)[C@@H]1CC[C@@H](C)[C@H]1[C@@H]2OC(=O)/C=C/c1ccccc1 = 74.5
N#Cc1c(-c2ccc(Cl)cc2)nc(NN=Cc2cccc(Cl)c2)nc1N1CCOCC1 = 53.3

For `Nc1nc(Nc2ccc([N+](=O)[O-])cc2O)nc(C(Cl)(Cl)Cl)n1` , what is its reported growth? 25.8

# repeat for `COc1ccc(/C=N\NC(=O)c2ccc3nc(-c4ccc(Cl)cc4)[nH]c3c2)cc1` 68.2

# repeat for `N=C(N)c1ccc(-c2ccc(-c3ccccc3)s2)nc1` 57.3

# repeat for `O=[N+]([O-])c1ccc(N/N=C\c2cc(Cl)ccc2O)nc1` 13.8

# repeat for `COc1cc(-c2ccc(-c3ccc(C(=N)N)s3)s2)cc(OC)c1OC` 4.68

###

Test system: RXF 393 renal
Test protocol: NCI-60 one-dose screen, 48 h (100 = growth as untreated, 0 = no growth, -100 = all killed)
Condition summary: 10 µM unless noted
The panel holds about 83,000 compounds, 20% with a hit somewhere; the sample as a whole holds those more often.
Label class 1 when growth is strictly below 90%; at or above that, label class 0.

# example entries with known answers
O=C1CC2C=CCN2C=C1NC(=O)c1ccccc1 (stereo not given) = class 0
CCOc1ccc(-c2cc(C3(S(=O)(=O)c4ccc(C)cc4)CC=CC3)on2)cc1 = class 0
CCCCCCCCCCCCCCCCCCOc1ccccc1CC(=O)OCC[N+]1(C)CCCCC1 = class 1
COc1ccc(C(=O)/C=C/c2ccc(C)cc2)cc1S(N)(=O)=O = class 1
C(=N\Nc1nnc2n1N=C(c1ccccc1)CS2)/c1ccc(OCc2ccccc2)cc1 = class 1

Does the reported growth of `Cc1cc(C)n(C(=O)CSc2nc3sc4c(c3c(=O)n2-c2ccccc2)CCCCC4)n1` stay below 90%? class 0

# repeat for `Cc1ccc2nc(/C=C/c3ccc(N(C)C)cc3)cc(C)c2c1` class 1

# repeat for `Cc1cc(=O)oc2cc(Oc3nc(-c4ccccc4)cn4c(-c5ccccc5)cnc34)ccc12` class 1

# repeat for O=C(CN1C(=O)NC2NC(=O)NC21)N/N=C/c1cccc([N+](=O)[O-])c1 (stereo not given) class 0

# repeat for `O=C1Nc2ccccc2/C1=C/c1cccn1CCCCCCn1c2ccccc2c(=O)c2ccccc21` class 0

###

Test system: TK-10 renal
Test protocol: NCI-60 one-dose screen, 48 h (100 = growth as untreated, 0 = no growth, -100 = all killed)
Condition summary: 10 µM unless noted
About 83,000 compounds went through this panel and 20% of them were active in at least one assay; those are over-represented in the sample as a whole.
Measured quantity: growth (%)
Kindly answer with a numeric value in %, unit omitted.

Recorded results for 3 compounds are shown here.
CSc1nn2c(-c3cc4cc(Br)ccc4oc3=O)ccnc2c1C#N = 157
COc1ccc(/C=N\NC(=O)c2ccc3nc(-c4ccc(Cl)cc4)[nH]c3c2)cc1 = 39.1
Nc1ncc(-c2ccc3ncnc(N4CCc5cc(F)c(Cl)cc54)c3c2)cn1 = 21.8

For `COc1ccc2c(c1)c(-c1nc(-c3cn(C)c4ccncc34)cs1)cn2C` , what is its reported growth? 79.7

# repeat for CCOC(=O)C1=CCC(n2cc(F)c(=O)[nH]c2=O)O1 (stereo not given) 110

# repeat for `C#CCOc1cccc(-c2ncnc3cc(NC(=O)CCl)ccc23)c1` 11.8

# repeat for `O=C(CSc1nnc(-c2ccc(Cl)c(Cl)c2)n1-c1ccccc1)Nc1ccc(C(=O)/C=C/c2ccc(Cl)cc2)cc1` 93.3

###

Tested on: BT-549 breast
Test protocol: NCI-60 one-dose screen, 48 h
Condition summary: 10 µM unless noted
This is part of a sample that, as a whole, favours compounds with a hit. Of some 83,000 tested, about 20% had one in any assay. Activity calls are given as the source filed them. How the source made its calls: active means growth percent below 10; inactive means the rest.
Pick one: active, inactive

# example entries with known answers
COC(=O)[C@@H](Cc1c[nH]c2ccccc12)NC(=O)[C@H](Cc1ccccc1)NCc1ccncc1 = inactive
C#Cc1c(I)n(C2OC(CO[Si](C)(C)C(C)(C)C)C3OC(C)(C)OC32)c(=O)[nH]c1=O (stereo not drawn) = inactive
CO[C@H]1/C=C/O[C@@]2(C)Oc3c(C)c(O)c4c(O)c(c5c(nc6cc(C)ccn65)c4c3C2=O)NC(=O)/C(C)=C\C=C\[C@H](C)[C@H](O)[C@@H](C)C(O)[C@@H](C)[C@H](OC(C)=O)[C@@H]1C (stereo partly drawn) = inactive
CC/C(=C(/c1ccc(Cl)cc1)c1ccc(OCCN(CC)CC)cc1)c1ccc(OC)cc1 = inactive
C(CCCSC1=NCCN1)CCSC1=NCCN1 = inactive

Per the assay record, what outcome was assigned to `Cn1cc(-c2nc(-c3c[nH]c4c(Cl)nccc34)cs2)c2ccccc21` ? inactive

# repeat for C=C1CC[C@@H]2[C@](C)(COC(C)=O)[C@H](OC(C)=O)CC[C@@]2(C)[C@@H]1CC(Nc1ccc(S(=O)(=O)Nc2nccc(C)n2)cc1)C1=CCOC1=O (stereo partly drawn) active

# repeat for Cc1ccc2c(c1)CC(O)CC1C(=O)N(CCO)CC(=O)N21 (stereo not drawn) inactive

# repeat for CC1(C)C2=C(C(=O)N1Cc1ccccc1)C(c1ccco1)N(C(=O)C1CCC1)CCN2 (stereo not drawn) inactive

# repeat for `O=S(=O)(Nc1ccc(Br)cc1)c1ccc(-c2cnc(C3CC3)o2)cc1` inactive
